# method.summary: qHTS Assay for Identification of Small Molecule Antagonists for NFkB Signaling Pathway. (AID 624479);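 note: pathway stimulated with TNF alpha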; note: potency is the fitted concentration of half-maximal effect
# condition.parameters: NFkB pathway reporter cell assay, antagonist mode; series mostly up to 38.3 µM
Active and inactive are the calls of the source. Calls come from the whole dose curve.
experimental.readout: Potency

| entry.smiles | experimental.readout | value.reported |
| --- | --- | --- |
| CN(c1ncccc1CNc1nc(Nc2ccc3c(c2)CC(=O)N3)ncc1C(F)(F)F)S(C)(=O)=O | Potency | 1.49 µM (active) |
| CC[C@@H]1C(=O)N(C)c2cnc(Nc3ccc(C(=O)NC4CCN(C)CC4)cc3OC)nc2N1C1CCCC1 | Potency | 13.3 µM (active) |
| CC(=O)OCCN1C(=O)c2c(C)nc3ccc(S(=O)(=O)N4CCOCC4)cc3c2C1=O | Potency | inactive |
| CCC(=C(c1ccccc1)c1ccc(OCCN(C)C)cc1)c1ccccc1 | Potency | 21.1 µM (active) |
| COc1ccc2c(c1)CC[C@@H](CN(C)CC(=O)O)[C@H]2c1ccccc1 | Potency | inactive |
| CCC[C@H](NC(=O)C(C#N)=Cc1cccc(Br)n1)c1ccccc1 | Potency | 2.11 µM (active) |
| C=C1C(=CC=C2CCC[C@]3(C)[C@@H]([C@H](C)C=C[C@H](C)C(C)C)CC[C@@H]23)C[C@@H](O)C[C@@H]1O | Potency | 21.1 µM (active) |
| Cc1ccc(-c2ncn(-c3ccc(Nc4nccc(-c5cccc(N6CCOCC6)c5)n4)cc3)n2)cn1 | Potency | 0.237 µM (active) |
| O=C(c1ccc(Nc2nccc(-c3cc4ccccc4s3)n2)cc1)N1CCC(N2CCCC2)CC1 | Potency | 0.266 µM (active) |
| CC1=C(CO)C(=O)O[C@@H]([C@@H](C)[C@H]2CC[C@H]3[C@@H]4C[C@H]5O[C@]56[C@@H](O)C=CC(=O)[C@]6(C)[C@@H]4CC[C@]23C)C1 | Potency | 1.49 µM (active) |
| CCN1CCN(CC(=O)Nc2ccc(-c3cccc4c(=O)cc(N5CCOCC5)oc34)c3sc4ccccc4c23)CC1 | Potency | 13.3 µM (active) |
| C=CC(=O)Nc1cc2c(Nc3ccc(F)c(Cl)c3)ncnc2cc1C#CC(C)(C)N1CCN(C)CC1 | Potency | 4.73 µM (active) |
| O=c1[nH]nc(Sc2ncc([N+](=O)[O-])s2)n1-c1ccc2c(c1)OCCO2 | Potency | 23.7 µM (active) |
| C[C@@H](Oc1cc(-n2cnc3ccc(CN4CCN(C)CC4)cc32)sc1C(N)=O)c1ccccc1C(F)(F)F | Potency | inactive |
| O=C(C=Cc1c(C(=O)O)[nH]c2cc(Cl)cc(Cl)c12)Nc1ccccc1 | Potency | inactive |
| Nc1nc(-c2nn(Cc3ccccc3F)c3ncccc23)nc(N)c1N1CCOCC1 | Potency | inactive |

====

# System: MCC-26
# method.summary: qHTS assay to identify novel small-molecules to repurpose for Merkel cell carcinoma treatment (AID 1296009); note: nearly all actives have a fitted effect of over 60% in size
# condition.parameters: MCC and control cell lines, CellTiter-Glo viability, 72 h; series mostly up to 46 µM
Inconclusive results are not listed. The source made the active and inactive calls. The call rests on the fitted dose curve; in most records, active means well fitted inhibition curve with a large enough effect; inconclusive means small, poorly fitted or top-dose-only effect; inactive means flat fitted curve, though single readings scatter.
Classes used: YES (active), NO (inactive)

| compound | qualitative.label |
| --- | --- |
| O=c1[nH]nc(Sc2ncc([N+](=O)[O-])s2)n1-c1ccc2c(c1)OCCO2 | YES |
| O=C1CCC[C@@H]2[C@H]3CCC[N+]4([O-])CCC[C@@H](CN12)[C@@H]34 (stereo not given in full) | NO |
| CN(C1CCc2c(c3ccccc3n2CC(=O)O)C1)S(=O)(=O)c1ccc(F)cc1 (stereo not given) | NO |
| CC(C)c1ccccc1Cc1cc(C(=O)Nc2ccc(S(=O)(=O)c3ccccc3C(C)(C)C)cc2)c(O)c(O)c1O | NO |
| Cc1c(CN2CCN(S(C)(=O)=O)CC2)sc2c(N3CCOCC3)nc(-c3cnc(N)nc3)nc12 | YES |
| Cc1c(C)n(Cc2ccc(-c3ccccc3C(=O)O)cc2)c2ccc(C(=O)N[C@@H](C)c3ccc([N+](=O)[O-])cc3)cc12 | NO |
| C=CCn1c(=O)c2cnc(Nc3ccc(N4CCN(C)CC4)cc3)nc2n1-c1cccc(C(C)(C)O)n1 | YES |
| Cc1cnc(-c2cnc(NCCNc3ccc(C#N)cn3)nc2-c2ccc(Cl)cc2Cl)[nH]1 | NO |
| CC(=O)c1c(C)c2cnc(Nc3ccc(N4CCNCC4)cn3)nc2n(C2CCCC2)c1=O | NO |
| COc1cc2c(Oc3ccc(NC(=O)C4(C(=O)Nc5ccc(F)cc5)CC4)cc3F)ccnc2cc1OCCCN1CCOCC1 | YES |

====

# method.summary: qHTS of pediatric cancer cell lines to identify multiple opportunities for drug repurposing: Confirmatory screen for NB-EBc1 cells (AID 1347115);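 note: cells exposed to compound for 48 h before the viability read; nearly all actives have a fitted effect of over 45% in size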
# condition.parameters: NB-EBc1 neuroblastoma cells, viability (cytotoxicity); series mostly up to 45.9 µM
Records with an inconclusive call do not appear. Active and inactive are the calls of the source. Calls follow the shape of the dose curve; as a rule, active = well fitted cell-killing curve with a large enough effect; inconclusive = small, poorly fitted or top-dose-only effect, or effect the other way; inactive = no such curve, though single readings can be large or run the other way.
Classes used: active, inactive

| entry.smiles | qualitative.label |
| --- | --- |
| COc1ccc(C=Cc2cc(OC)c(OC)c(OC)c2)cc1O | active |
| O=C(Nc1cn[nH]c1-c1nc2ccc(CN3CCOCC3)cc2[nH]1)NC1CC1 | inactive |
| CNC(=O)c1ccccc1Nc1nc(Nc2ccc(N3CCOCC3)cc2OC)ncc1Cl | active |
| O=C(C=Cc1cccc(S(=O)(=O)Nc2ccccc2)c1)NO | active |
| C=CC(=O)Nc1cccc(Oc2nc(Nc3ccc(N4CCN(C)CC4)cc3)ncc2Cl)c1 | active |
| Cc1cnc(Nc2ccc(F)cc2Cl)nc1-c1c[nH]c(C(=O)N[C@H](CO)c2cccc(Cl)c2)c1 | inactive |

====

# method.summary: qHTS of pediatric cancer cell lines to identify multiple opportunities for drug repurposing: Primary screen for Rh30 cells (AID 1347107); note: nearly all actives have a fitted effect of over 75% in size
# condition.parameters: Rh30 rhabdomyosarcoma viability, CellTiter-Glo luminescence, 48 h; series mostly up to 46 µM
Inconclusive results are not listed. Active and inactive are the calls of the source. Calls follow the shape of the dose curve; as a rule, active = well fitted cell-killing curve with a large enough effect; inconclusive = small, poorly fitted or top-dose-only effect; inactive = no such curve, though single readings can be large or run the other way.
Classes used: active, inactive

| entry.smiles | qualitative.label |
| --- | --- |
| COc1cccc(Nc2c(C(N)=O)cnc3c(C)cc(S(=O)(=O)c4cccc(C(=O)N(C)C)c4)cc23)c1 | inactive |
| CC(C)c1cc(-c2n[nH]c(=O)n2-c2ccc3c(ccn3C)c2)c(O)cc1O | inactive |
| CCn1nnc2c(N3CCOCC3)nc(-c3ccc(NC(=O)Nc4ccc(C(=O)N5CCN(C)CC5)cc4)cc3)nc21 | active |
| CC(C)(O)CCc1ccc(OCc2cc(-c3cccc(OC(F)F)c3)c3ncccc3c2)cc1 | inactive |
| NC(=O)Nc1cc(-c2cccc(F)c2)sc1C(=O)N[C@H]1CCCNC1 | active |
| NC(=O)c1c(OCc2c(F)cc(Br)cc2F)nsc1NC(=O)NCCCCN1CCCC1 | active |
| Nc1nccc(Oc2ccc(NC(=O)c3c[nH]cc(-c4ccc(F)cc4)c3=O)cc2F)c1Cl | inactive |
| Clc1cccc(-c2nnnn2Cc2cccnc2)c1Cl | inactive |
| COC(=O)Nc1nc2ccc(C(=O)c3ccc(F)cc3)cc2[nH]1 | inactive |
| Cc1c(C)n(Cc2ccc(-c3ccccc3C(=O)O)cc2)c2ccc(C(=O)N[C@@H](C)c3ccc([N+](=O)[O-])cc3)cc12 | inactive |
| O=C(O)[C@H](Cc1c[nH]c2ccccc12)N1C(=O)c2ccccc2C1=O | inactive |
| Cc1ccc(S(=O)(=O)Nc2cc(Cl)ccc2C(=O)Nc2nc(-c3ccccc3)cs2)cc1 | inactive |

====

# method.summary: qHTS of pediatric cancer cell lines to identify multiple opportunities for drug repurposing: Primary screen for BT-12 cells (AID 1347101); note: potency is the fitted concentration of half-maximal effect; nearly all actives have a fitted effect of over 25% in size
# condition.parameters: BT-12 viability, CellTiter-Glo luminescence, 48 h; series mostly up to 57.3 µM
Records with an inconclusive call do not appear. The source made the active and inactive calls. Calls follow the shape of the dose curve; as a rule, active = well fitted cell-killing curve with a large enough effect; inconclusive = small, poorly fitted or top-dose-only effect; inactive = flat fitted curve, though single readings scatter.
experimental.readout: Potency

| entry.smiles | value.reported |
| --- | --- |
| O=C(O)c1ccc2c(c1)nc(Nc1cccc(Cl)c1)c1ccncc12 | 19.3 µM (active) |
| CC(C)(C)OC(=O)Nc1ccc(-c2cc(C(=O)NCCCCCCC(=O)NO)no2)cc1 | 17.2 µM (active) |
| OCc1ccc(-c2ccc(-c3ccc(CO)s3)o2)s1 | 30.6 µM (active) |

====

# method.summary: qHTS assay for measurement of the activity of small molecule inhibitors on Zika virus induced Caspase-3 activity in human iPSC derived neural progenitor cells (hNPCs) (AID 1224857); note: nearly all actives have a fitted effect of over 65% in size
# condition.parameters: hNPCs ZIKV-induced caspase-3/7, Caspase-Glo luminescence, 6 h; series mostly up to 45.7 µM
Records with an inconclusive call do not appear. Calls of active or inactive are those of the source. Calls follow the shape of the dose curve; as a rule, active = well fitted inhibition curve with a large enough effect; inconclusive = small, poorly fitted or top-dose-only effect; inactive = no such curve, though single readings can be large or run the other way.
Classes used: true for active, false for inactive

| compound | qualitative.label |
| --- | --- |
| Cc1coc2c1C(=O)C(=O)c1c-2ccc2c1CCCC2(C)C | false |
| CC(C)C[C@H](NC(=O)CNC(=O)c1cc(Cl)ccc1Cl)B(O)O | false |
| Nc1nccc(Oc2ccc(NC(=O)c3c[nH]cc(-c4ccc(F)cc4)c3=O)cc2F)c1Cl | false |
| COc1cc2nccc(Oc3ccc(NC(=O)C4(C(=O)Nc5ccc(F)cc5)CC4)cc3)c2cc1OC | false |
| Nc1nc(NCCNc2ncc(-n3ccnc3)c(-c3ccc(Cl)cc3Cl)n2)ccc1[N+](=O)[O-] | false |
| CCOC(=O)C1=C(C)NC2=C(C(=O)CC(C)(C)C2)C1c1ccc(-c2ccccc2)cc1 (configuration not stated) | false |
| Cc1nc2ccc(CN(C)c3ccc(C(=O)N[C@@H](CCC(=O)O)C(=O)O)s3)cc2c(=O)[nH]1 | false |
| CC[C@@H]1C(=O)N(C)c2cnc(Nc3ccc(C(=O)NC4CCC(N5CCN(CC6CC6)CC5)CC4)cc3OC)nc2N1C(C)C (some centres not stated) | false |
| COc1cc(=C2C=c3ccccc3=N2)[nH]c1=Cc1[nH]c(C)cc1C | false |
| CC(C)c1ccccc1Cc1cc(C(=O)Nc2ccc(S(=O)(=O)c3ccccc3C(C)(C)C)cc2)c(O)c(O)c1O | false |
| CC(C)(C)NC(=O)[C@H]1CN(Cc2cccnc2)CCN1C[C@@H](O)C[C@@H](Cc1ccccc1)C(=O)N[C@H]1c2ccccc2C[C@H]1O | false |
| O=C(O)c1ccc2cc(-c3ccc(O)c(C45CC6CC(CC(C6)C4)C5)c3)ccc2c1 | false |
| O=c1[nH]nc(Sc2ncc([N+](=O)[O-])s2)n1-c1ccc2c(c1)OCCO2 | true |
| C=CC(=O)Nc1cc2c(Nc3ccc(F)c(Cl)c3)ncnc2cc1OCCCN1CCOCC1 | false |
| CNC(=O)CN1CCC(Oc2cc3c(Nc4cccc(Cl)c4F)ncnc3cc2OC)CC1 | false |
| O=C(CCCCCCC(=O)Nc1ccc([C@H]2O[C@@H](CSc3nc(-c4ccccc4)c(-c4ccccc4)o3)C[C@@H](c3ccc(CO)cc3)O2)cc1)NO | false |
| NC(=O)c1c(OCc2c(F)cc(Br)cc2F)nsc1NC(=O)NCCCCN1CCCC1 | false |
| CC(C)(O)CCc1ccc(OCc2cc(-c3cccc(OC(F)F)c3)c3ncccc3c2)cc1 | false |
| CC(C)=CCCC(C)=CCCC(C)=CCSc1ccccc1C(=O)O | false |
| CN1CC[C@@H](c2c(O)cc(O)c3c(=O)cc(-c4ccccc4Cl)oc23)[C@@H](O)C1 | false |
| O=C(O)C1(Cc2cccc(Nc3nccs3)n2)CCC(Oc2cccc(Cl)c2F)CC1 (configuration not stated) | false |
| CCN(CC)CCNC(=O)c1ccc2nc(-c3ccccc3)c(-c3ccc(CN4CCC(n5c(=O)[nH]c6ccccc65)CC4)cc3)nc2c1 | false |
